Give Plant response rating, Pigweed for every item shown.
test system: pigweed (Amaranthus retroflexus); assay: Test A preemergence; format: in vivo; details: 125 g ai/ha, Preemergence; visual injury after approximately 10 d; 0 to 100 scale where 0 is no effect and 100 is complete control
Give bare numbers.

Below, each entry is followed by its recorded Plant response rating, Pigweed result.
compound | Plant response rating, Pigweed
Cc1ccc(C2CN(C)C(=O)C2C(=O)Nc2ccc(F)cc2F)c(F)c1 (centres unmarked) | 20
CCc1ccc(C2CNC(=O)C2C(=O)Nc2cccc(F)c2F)cc1 (centres unmarked) | 0
CN1CC(c2cccc(OC(F)F)c2)C(C(=O)Nc2ccccc2S(C)(=O)=O)C1=O (centres unmarked) | 80

Quick one: give me Plant response rating, Pigweed for each item below, same order please.
1. O=C1NCC(c2cc(Br)cs2)C1C(=O)Nc1cccc(F)c1F (racemic)
2. Cc1ccc(C2CN(C)C(=O)C2C(=O)Nc2ccccc2F)c(F)c1 (centres unmarked)
3. O=C1NCC(c2cc(F)cc(C(F)(F)F)c2)C1C(=O)Nc1ccc(F)cc1F (centres unmarked)
4. O=C1NCC(c2csc(Br)c2)C1C(=O)Nc1ccccc1F (centres unmarked)
5. O=C1NCC(c2cc(F)ccc2F)C1C(=O)Nc1ccccc1F (racemic)

*A*
1. 0
2. 0
3. 0
4. 0
5. 0

Quick one: give me Plant response rating, Pigweed for each item below, same order please.
1. CCc1cccc(C2CN(C)C(=O)C2C(=O)Nc2ccccc2S(C)(=O)=O)c1 (centres unmarked)
2. CN1CC(c2cccc(Br)c2)C(C(=O)Nc2cccc(F)c2F)C1=O (centres unmarked)
3. O=C1NCC(c2ccnc(C(F)(F)F)c2)C1C(=O)Nc1ccccc1F (racemic)
4. Cc1ccc(C2CNC(=O)C2C(=O)Nc2ccccc2F)cc1C(F)(F)F (racemic)
5. CN1CC(c2ccc(Br)cc2)C(C(=O)Nc2ccccc2F)C1=O (centres unmarked)
6. COCc1cccc(C2CNC(=O)C2C(=O)Nc2ccccc2F)c1 (centres unmarked)

*A*
50
30
0
40
70
0
